- measured.on: T1, human FcRn extracellular domain (ECD) fused to a transmembrane domain and an intracellular citrine, with … (human)
- T1 construct: also called human FcRn overexpressed on CHO cells; FcRn transfected CHO cells
- protocol.description: flow cytometry, CHO cells transiently expressing human FcRn ECD-TM-citrine and B2M, pH 7.4, AF647 detection antibody
Overview of recorded EC50 (read off the curve) for various binders
value.type: EC50 (read off the curve)

[[record]]
binder = "cx12008 (bispecific antibody, anti-FcRn VHH linked to anti-albumin VHH) single polypeptide, format of FIG. 5(i): EVQLLESGGGEVQPGGSLRLSCAASGSIANVDLMAWHRQAPGKQREPIAVINDAGSTYYAESVKGRFTISRDNAKNTLYLQMNSLRAEDTAVYYCNTATWRGGERYADWGQGTLVTVRPGSGGGSEVQLVESGGGEVQPGGSLRLSCAASGFTFSTSGMVWVRQAPGKGLEWVSTISDDARITVYAESVKGRFTISRDNAKNTVYLQMNSLRAEDTAVYYCATYRAGSRIGSYEDYYRGQGTLVTVRPGG"
observed_result = "~0.7 nM"

[[record]]
binder = "cx11558 (B10a.v2.1 VHH x hz4A01v51 VHH) (bispecific antibody) EVQLLESGGGEVQPGGSLRLSCAASGSIANVDLMAWHRQAPGKQREPIAVINDAGSTYYAESVKGRFTISRDNAKNTLYLQMNSLRAEDTAVYYCNTATWRGGERYADWGQGTLVTVKPGSGGGSEVQLVESGGGEVQPGGSLRLSCAASGFTFSTSGMVWVRQAPGKGLEWVSTISDDARITVYAESVKGRFTISRDNAKNTVYLQMNSLRAEDTAVYYCATYRAGSRIGSYEDYYRGQGTLVTVKPGG"
observed_result = "~0.5 nM"

[[record]]
binder = "cx12007 (B10a.v2.4 VHH x hz4A01v51.12 VHH) (bispecific antibody) EVQLLESGGGKVQPGGSLRLSCAASGSIANVDLMAWHRQAPGKQREPIAVINDAGSTYYAESVKGRFTISRDNAKNTLYLQMNSLRAEDTAVYYCNTATWRGGERYADWGQGTLVTVEPGSGGGSEVQLLESGGGKVQPGGSLRLSCAASGFTFSTSGMVWVRQAPGKGLEWVSTISDDARITVYAESVKGRFTISRDNAKNTVYLQMNSLRAEDTAVYYCATYRAGSRIGSYEDYYRGQGTLVTVEPGG"
observed_result = "~0.3 nM"

[[record]]
binder = "cx12003 (bispecific antibody, anti-FcRn VHH linked to anti-albumin VHH) single polypeptide, format of FIG. 5(i): QVQLLESGGGEVQPGGSLRLSCAASGSIANVDLMAWHRQAPGKQREPIAVINDAGSTYYAESVKGRFTISRDNAKNTLYLQMNSLRAEDTAVYYCNTATWRGGERYADWGQGTLVTVEPGSGGGSQVQLLESGGGEVQPGGSLRLSCAASGFTFSTSGMVWVRQAPGKGLEWVSTISDDARITVYAESVKGRFTISRDNAKNTVYLQMNSLRAEDTAVYYCATYRAGSRIGSYEDYYRGQGTLVTVEPGG"
observed_result = "~0.3 nM"

[[record]]
binder = "cx12006 (bispecific antibody, anti-FcRn VHH linked to anti-albumin VHH) single polypeptide, format of FIG. 5(i): QVQLLESGGGKVQPGGSLRLSCAASGSIANVDLMAWHRQAPGKQREPIAVINDAGSTYYAESVKGRFTISRDNAKNTLYLQMNSLRAEDTAVYYCNTATWRGGERYADWGQGTLVTVEPGSGGGSQVQLLESGGGKVQPGGSLRLSCAASGFTFSTSGMVWVRQAPGKGLEWVSTISDDARITVYAESVKGRFTISRDNAKNTVYLQMNSLRAEDTAVYYCATYRAGSRIGSYEDYYRGQGTLVTVEPGG"
observed_result = "~0.3 nM"

